Tested on: SK-MEL-28
test: Cytotoxicity against human SK-MEL-28 cells assessed as cell growth at 10 uM after 48 hrs by SRB assay relative to control
Format: functional
details: SK-MEL-28, 48 h, read-out: Activity
Would you kindly list growth at 10 µM for each of these compounds?
Answer with a number only, understood to be in %.

# compound `CSC1=Nc2c(c(C)c(C)n2CCCC(=O)NCCc2cnc[nH]2)C2=NC(=O)CN12` ; its growth at 10 µM = 113

# compound `CSC1=Nc2c(c(C)c(-c3ccccc3)n2CCCCl)C2=NC(=O)CN12` ; its growth at 10 µM = 56

# compound `CSC1=Nc2c(c(C)c(-c3ccccc3)n2CCCN2CCN(C)CC2)C2=NC(=O)CN12` ; its growth at 10 µM = 103

# compound `CCOC(=O)CCCn1c(C)c(C)c2c1N=C(SC)N1CC(=O)N=C21` ; its growth at 10 µM = 114

# compound `CSC1=Nc2c(c(C)c(-c3ccccc3)n2CCCC(=O)O)C2=NC(=O)CN12` ; its growth at 10 µM = 84

# compound COC(=O)C(Cc1cnc[nH]1)NC(=O)CCCn1c(C)c(C)c2c1N=C(SC)N1CC(=O)N=C21 (centres undefined) ; its growth at 10 µM = 113

# compound `CCOC(=O)CCCn1c2c(c(C)c1-c1ccccc1)C1=NC(=O)CN1C(SC)=N2` ; its growth at 10 µM = 100

# compound `CSC1=Nc2c(c(C)c(C)n2CCCC(=O)O)C2=NC(=O)CN12` ; its growth at 10 µM = 110

# compound CSC1=Nc2c(c(C)c(-c3ccccc3)n2CCCN2CCCCC2)C2=NC(=O)CC(C)N12 (centres undefined) ; its growth at 10 µM = 43
